system under test: D1R (dopamine D1 receptor) (Homo sapiens, UniProt P21728)
Sequence (P21728 whole entry): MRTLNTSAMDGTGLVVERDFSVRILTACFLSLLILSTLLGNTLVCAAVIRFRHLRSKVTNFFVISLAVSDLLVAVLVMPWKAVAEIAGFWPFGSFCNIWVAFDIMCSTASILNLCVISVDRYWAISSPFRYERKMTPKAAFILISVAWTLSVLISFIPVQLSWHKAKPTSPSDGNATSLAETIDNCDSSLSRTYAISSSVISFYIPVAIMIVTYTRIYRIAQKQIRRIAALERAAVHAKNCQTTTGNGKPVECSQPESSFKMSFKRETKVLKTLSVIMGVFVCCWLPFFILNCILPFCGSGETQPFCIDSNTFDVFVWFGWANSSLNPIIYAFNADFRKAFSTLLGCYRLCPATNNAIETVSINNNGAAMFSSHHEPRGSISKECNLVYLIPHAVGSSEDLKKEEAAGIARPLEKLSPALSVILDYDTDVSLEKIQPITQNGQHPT
test name: biochemical
condition: [3H]SCH23390 radioligand, triplicate, na = not active (<50% inhibition in a primary assay when tested at 10 µM)
pKi: −log10 of the molar value.
endpoint label: pKi

Examples from the recorded data:
Req: I'm curious: which pKi was measured for C=CC(=O)Nc1cc2c(c(Cl)c1O)CCN(C)CC2c1ccccc1 (stereo not drawn) [Compound 21a] tested on D1R (dopamine D1 receptor) (Homo sapiens, UniProt P21728)?
Resp: 5.82

Req: What do you have for CN1CCc2c(cc(N)c(O)c2Cl)C(c2ccccc2)C1 (stereo not drawn) [Compound 17a] ?
Resp: 6.68

Req: What do you have for CC(C)C(=O)Nc1cc2c(c(Cl)c1O)CCN(C)CC2c1ccccc1 (stereo not drawn) [Compound 20a] ?
Resp: 5.53

Req: What do you have for C=CCN1CCc2c(ccc(O)c2Cl)C(c2cccc(C)c2)C1 (stereo not drawn) [Compound 14b] ?
Resp: 6.55

Req: What do you have for CCCC(=O)Nc1cc2c(c(Cl)c1O)CCN(C)CC2c1cccc(C)c1 (stereo not drawn) [Compound 19b] ?
Resp: 6.20

(a) CN1CCc2c(cc(NC(N)=O)c(O)c2Cl)C(c2ccccc2)C1 (stereo not drawn) [Compound 23a]
(b) Cc1cccc(C2CN(C)CCc3c2cc([N+](=O)[O-])c(O)c3Cl)c1 (stereo not drawn) [Compound 16b]
Req: // returns a or b , whichever has the lower pKi Please respond with the label that marks your chosen entry.
Resp: b

(1) C=CC(=O)Nc1cc2c(c(Cl)c1O)CCN(C)CC2c1cccc(C)c1 (stereo not drawn) [Compound 21b]
(2) C=CCN1CCc2c(ccc(O)c2Cl)C(c2ccccc2)C1 (stereo not drawn) [Compound 14a]
Req: Which of the two gives a bigger number for pKi: 1 or 2 ? Please respond with the label that marks your chosen entry.
Resp: 2

---

Examples of molecules with documented melting point follow.

Examples from the recorded data:
Req: May I ask what melting point has been recorded for Oc1ccc(C2CNCCc3c2ccc(O)c3Cl)cc1 (stereo not drawn) [Compound 11d] ?
Resp: 135.8 to 136.9 °C

Req: What do you have for COc1ccc2c(c1Cl)CCNCC2c1cccc(C)c1 (stereo not drawn) [Compound 10b] ?
Resp: 180.4 to 181.8 °C

Req: What do you have for O=[N+]([O-])c1cc2c(c(Cl)c1O)CCNCC2c1ccccc1 (stereo not drawn) [Compound 24a] ?
Resp: 201.4 to 202.8 °C

Req: What do you have for Cc1cccc(C2CNCCc3c2ccc(O)c3Cl)c1 (stereo not drawn) [Compound 11b] ?
Resp: 122.3 to 124.2 °C

Req: What do you have for C=CCN1CCc2c(ccc(OC)c2Cl)C(c2cccc(C)c2)C1 (stereo not drawn) [Compound 12b] ?
Resp: 172.1 to 173.8 °C

More entries:
Req: May I ask what melting point has been recorded for Cc1cccc(C2CN(C)CCc3c2cc(NC(N)=O)c(O)c3Cl)c1 (stereo not drawn) [Compound 23b] ?
Resp: 184.6 to 186.1 °C

Req: What do you have for CC(=O)Nc1cc2c(c(Cl)c1O)CCN(C)CC2c1ccccc1 (stereo not drawn) [Compound 18a] ?
Resp: 154.4 to 156.2 °C

Req: What do you have for CCCC(=O)Nc1cc2c(c(Cl)c1O)CCN(C)CC2c1ccccc1 (stereo not drawn) [Compound 19a] ?
Resp: 148.7 to 150.1 °C

Req: What do you have for C=CCN1CCc2c(ccc(OC)c2Cl)C(c2ccc(OC)cc2)C1 (stereo not drawn) [Compound 12c] ?
Resp: 155.4 to 157.1 °C

---

system under test: D1R (dopamine D1 receptor) (Homo sapiens, UniProt P21728)
condition: [3H]SCH23390 radioligand; triplicate; na = not active (<50% inhibition in a primary assay when tested at 10 µM)
endpoint label: Ki D1R

Req: May I ask what Ki D1R has been recorded for CN1CCc2c(cc([N+](=O)[O-])c(O)c2Cl)C(c2ccccc2)C1 (stereo not drawn) [Compound 16a] ?
Resp: no affinity

Req: What do you have for O=[N+]([O-])c1cc2c(c(Cl)c1O)CCNCC2c1ccccc1 (stereo not drawn) [Compound 24a] ?
Resp: no affinity

Req: What do you have for Cc1cccc(C2CNCCc3c2ccc(O)c3Cl)c1 (stereo not drawn) [Compound 11b] ?
Resp: no affinity

Req: What do you have for C=CCN1CCc2c(ccc(O)c2Cl)C(c2ccc(O)cc2)C1 (stereo not drawn) [Compound 14d] ?
Resp: no affinity

---

system under test: D1R (dopamine D1 receptor) (Homo sapiens, UniProt P21728)
condition: ratio of Ki D5R to Ki D1R
endpoint label: Selectivity D5/D1

Examples from the recorded data:
Req: May I ask what Selectivity D5/D1 has been recorded for CCCC(=O)Nc1cc2c(c(Cl)c1O)CCN(C)CC2c1cccc(C)c1 (centres unmarked) [Compound 19b] ?
Resp: 4.7

Req: What do you have for Cc1cccc(C2CN(C)CCc3c2ccc(O)c3Cl)c1 (centres unmarked) [Compound 15b] ?
Resp: 2.1

Req: What do you have for C=CCN1CCc2c(ccc(O)c2Cl)C(c2ccccc2)C1 (centres unmarked) [Compound 14a] ?
Resp: 2.9

Req: What do you have for CN1CCc2c(ccc(O)c2Cl)C(c2ccc(O)cc2)C1 (centres unmarked) [Compound 15d] ?
Resp: 2.6

Req: What do you have for C=CCN1CCc2c(ccc(O)c2Cl)C(c2cccc(C)c2)C1 (centres unmarked) [Compound 14b] ?
Resp: 2.6

(a) Cc1cccc(C2CN(C)CCc3c2cc(N)c(O)c3Cl)c1 (centres unmarked) [Compound 17b]
(b) CN1CCc2c(cc(N)c(O)c2Cl)C(c2ccccc2)C1 (centres unmarked) [Compound 17a]
Req: Which of the two gives a bigger number for Selectivity D5/D1: a or b ? Please respond with the label that marks your chosen entry.
Resp: a

---

system under test: D1R (Homo sapiens)
Construct: Eurofins Discover X
test name: D1R cAMP functional assay, agonist format (Eurofins DiscoverX HitHunter)
condition: agonist mode, read-out: RC50 (EC50), agonist format
endpoint label: EC50

Req: May I ask what EC50 has been recorded for CN1CCc2c(ccc(O)c2Cl)C(c2ccccc2)C1 (stereo not shown) [Compound 15a] ?
Resp: > 10 µM

---

Examples of molecules with documented melting point follow.

Examples from the recorded data:
Req: May I ask what melting point has been recorded for CN1CCc2c(cc(NC(N)=O)c(O)c2Cl)C(c2ccccc2)C1 (stereo not shown) [Compound 23a] ?
Resp: 141 to 142.1 °C

Req: What do you have for Cc1cccc(C2CN(C)CCc3c2cc([N+](=O)[O-])c(O)c3Cl)c1 (stereo not shown) [Compound 16b] ?
Resp: 210.4 to 212.6 °C

Req: What do you have for Cc1cccc(C2CN(C)CCc3c2ccc(O)c3Cl)c1 (stereo not shown) [Compound 15b] ?
Resp: 142.6 to 144 °C

More entries:
Req: May I ask what melting point has been recorded for COc1ccc2c(c1Cl)CCN(C)CC2c1cccc(C)c1 (stereo not shown) [Compound 13b] ?
Resp: 174.5 to 176.1 °C

Req: What do you have for C=CC(=O)Nc1cc2c(c(Cl)c1O)CCN(C)CC2c1ccccc1 (stereo not shown) [Compound 21a] ?
Resp: 161.4 to 163.1 °C

Req: What do you have for COc1ccc2c(c1Cl)CCNCC2c1ccccc1 (stereo not shown) [Compound 10a] ?
Resp: 156.4 to 158 °C

Req: What do you have for CN1CCc2c(ccc(O)c2Cl)C(c2ccccc2)C1 (stereo not shown) [Compound 15a] ?
Resp: 143.5 to 145.1 °C

Req: What do you have for C=CCN1CCc2c(ccc(O)c2Cl)C(c2cccc(C)c2)C1 (stereo not shown) [Compound 14b] ?
Resp: 151.3 to 152.7 °C

Req: What do you have for COc1ccc(C2CN(C)CCc3c2ccc(OC)c3Cl)cc1 (stereo not shown) [Compound 13c] ?
Resp: 155.4 to 157.1 °C

Req: What do you have for C=CCN1CCc2c(ccc(O)c2Cl)C(c2ccc(O)cc2)C1 (stereo not shown) [Compound 14d] ?
Resp: 132.5 to 134.1 °C

---

endpoint label: melting point

Examples from the recorded data:
Req: May I ask what melting point has been recorded for Oc1ccc2c(c1Cl)CCNCC2c1ccccc1 (stereo not drawn) [Compound 11a] ?
Resp: 134.6 to 135.8 °C

Req: What do you have for CC(C)C(=O)Nc1cc2c(c(Cl)c1O)CCN(C)CC2c1ccccc1 (stereo not drawn) [Compound 20a] ?
Resp: 144.6 to 145.9 °C

Req: What do you have for CN1CCc2c(cc(N)c(O)c2Cl)C(c2ccccc2)C1 (stereo not drawn) [Compound 17a] ?
Resp: 137 to 138.9 °C

Req: What do you have for Cc1cccc(C2CN(C)CCc3c2cc(N)c(O)c3Cl)c1 (stereo not drawn) [Compound 17b] ?
Resp: 134.8 to 136 °C

More entries:
Req: May I ask what melting point has been recorded for CCCC(=O)Nc1cc2c(c(Cl)c1O)CCN(C)CC2c1cccc(C)c1 (stereo not drawn) [Compound 19b] ?
Resp: 156.2 to 157.9 °C

Req: What do you have for COc1ccc(C2CNCCc3c2ccc(OC)c3Cl)cc1 (stereo not drawn) [Compound 10c] ?
Resp: 151.3 to 152.7 °C

Req: What do you have for CN1CCc2c(cc([N+](=O)[O-])c(O)c2Cl)C(c2ccccc2)C1 (stereo not drawn) [Compound 16a] ?
Resp: 198.7 to 200 °C

Req: What do you have for CC(=O)Nc1cc2c(c(Cl)c1O)CCN(C)CC2c1cccc(C)c1 (stereo not drawn) [Compound 18b] ?
Resp: 151.6 to 152.8 °C

Req: What do you have for Cc1cccc(C2CNCCc3c2cc([N+](=O)[O-])c(O)c3Cl)c1 (stereo not drawn) [Compound 24b] ?
Resp: 188.9 to 191.2 °C
